- tested system: SARS-CoV-2 spike protein N-terminal domain (NTD) (SARS-CoV-2, UniProt P0DTC2 14-305)
pKd: −log10 of the molar value.
experimental endpoint: pKd

- IMPI-047 (antibody, V domains shown) VH: EVQLVESGGGLIQPGGSLRLSCAASGFTVSSNYMNWVRQAPGKGLEWVSVIYSGGSTYYADSVKGRFTISRDNSKNTLYLQMNSLRTEDTAVYYCARDLVAYGMDVWGQGTTVTVSS VL: DIQLTQSPSFLSASVGDRVTITCWASQGISSYLAWYQQKPGKAPKVLIYAASTLQSGVPSRFSGSGSGTEFTLTISSLQPEDFATYYCQLLNSNPLTFGGGTKVEIK: 5.63
- IMPI-024 (antibody, V domains shown) VH: EVQLVQSGAEVKKPGESLKISCKGSGYSFTSYWIGWVRQMPGKGLEWMGIIYPGDSDTRYSPSFQGQVTISADKSISTAYLQWSSLKASDTAMYYCVRSYNWNYFDYWGQGTLVTVSS VL: AIQLTQSPSSLSASVGDRVTITCRASQGISSGLAWYQQKAGKAPKLLIYDVSSLESGVPSRFSGSGSGTDFTLTISSLQPEDFATYYCQQFLSYPWTFGQGTKVEIK: 6.18
